- Target entity: Endothelial lipase (EL) (Homo sapiens (Human), UniProt Q9Y5X9)
- Sequence (Q9Y5X9 21-500): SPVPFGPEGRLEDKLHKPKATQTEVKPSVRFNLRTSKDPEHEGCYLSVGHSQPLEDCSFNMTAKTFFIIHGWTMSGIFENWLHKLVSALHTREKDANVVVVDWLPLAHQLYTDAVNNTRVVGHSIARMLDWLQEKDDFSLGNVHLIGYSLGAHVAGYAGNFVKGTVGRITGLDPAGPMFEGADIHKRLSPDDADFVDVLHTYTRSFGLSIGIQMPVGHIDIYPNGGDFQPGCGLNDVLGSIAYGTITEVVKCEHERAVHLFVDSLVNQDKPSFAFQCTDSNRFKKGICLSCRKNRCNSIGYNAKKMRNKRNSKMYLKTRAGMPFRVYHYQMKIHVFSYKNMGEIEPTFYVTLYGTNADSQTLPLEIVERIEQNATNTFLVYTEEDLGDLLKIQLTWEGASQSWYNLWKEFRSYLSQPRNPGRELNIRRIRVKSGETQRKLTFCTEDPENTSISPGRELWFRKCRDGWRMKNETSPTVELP
- Protocol summary: EL assay: endothelial lipase activity with fluorescent substrate A10070 in DMPG vesicles
- Assay type: biochemical
Reported endpoint: IC50 (µM)

Some entries whose results are on file:
1) COCCNC(=O)c1ccc(-c2ccc3nc(C(C(=O)NCCS(N)(=O)=O)S(=O)(=O)C(C)C)sc3c2)cc1 (stereo not drawn): 0.0445
2) CS(=O)(=O)C(C(=O)NCCS(N)(=O)=O)c1nc2ccc(-c3ccc(C(N)=O)cc3)cc2s1 (stereo not drawn): 0.0016
3) CS(=O)(=O)C(C(=O)NCCS(N)(=O)=O)c1nc2ccc(-c3ccc(-c4nnc(N)s4)cc3)cc2s1 (stereo not drawn): 0.0012
4) Cc1nnc(CNC(=O)C(c2nc3ccc(-c4ccc(O)cc4)cc3s2)S(=O)(=O)Cc2ccccc2)o1 (stereo not drawn): 0.294
5) Cc1cc2nc(C(C(=O)NCCS(N)(=O)=O)S(C)(=O)=O)sc2cc1-c1ccc(C(=O)N2CC(C)(O)C2)cc1 (stereo not drawn): 0.0023

(1) CC(C)(O)Cn1cc(-c2ccc3nc(C(C(=O)NCCS(N)(=O)=O)S(C)(=O)=O)sc3c2)ccc1=O (stereo not drawn)
(2) CC(=O)Nc1cccc(-c2ccc3sc(C(C(=O)NCCS(N)(=O)=O)S(C)(=O)=O)nc3c2)c1 (stereo not drawn)
(3) CC(C)(O)Cn1ccc(-c2ccc3nc(C(C(=O)NCCS(N)(=O)=O)S(=O)(=O)Cc4ccc(F)cc4)sc3c2)cc1=O (stereo not drawn)
(4) CC(C)Oc1ccc(-c2ccc3nc(C(C(=O)NCCS(N)(=O)=O)S(C)(=O)=O)sc3c2)cc1Cl (stereo not drawn)
Enquiry: Sort the 4 compounds by IC50; largest first, smallest last. Form entry: ranked labels (order as requested).
Return: 3, 4, 1, 2
(3: 0.0116 µM, 4: 0.0023 µM, 1: 0.0011 µM, 2: 0.0005 µM)

(P) COCCS(=O)(=O)NS(=O)(=O)c1cccc(CNC(=O)C(c2nc3cc(-c4ccccc4)ccc3s2)S(=O)(=O)CCOC)c1 (stereo not drawn)
(Q) CO[C@H]1CCN(C(=O)c2ccc(-c3ccc4nc(C(C(=O)NCCS(N)(=O)=O)S(=O)(=O)Cc5ccc(OC(F)(F)F)cc5)sc4c3)cc2)C1 (stereo partly drawn)
(R) NS(=O)(=O)CCNC(=O)C(c1nc2ccc(-c3cccc(C(=O)NC4CCC4)c3)cc2s1)S(=O)(=O)CCC(F)(F)F (stereo not drawn)
(S) COCCS(=O)(=O)C(C(=O)NCc1cc(C(C)C)no1)c1nc2ccc(-c3ccccc3)cc2s1 (stereo not drawn)
(T) CN(CC(F)F)C(=O)c1cccc(-c2ccc3nc(C(C(=O)NCCS(N)(=O)=O)S(=O)(=O)CCC(F)(F)F)sc3c2)c1 (stereo not drawn)
Enquiry: Hi! Can you put these in order of IC50, lowest number first? Put the labels in the requested order and write them down.
Return: Q, R, T, S, P
(Q: 0.0027 µM, R: 0.0068 µM, T: 0.0269 µM, S: 0.0459 µM, P: 0.205 µM)

(P) CO[C@@H]1CCN(C(=O)c2ccc(-c3ccc4nc(C(C(=O)NCCS(N)(=O)=O)S(=O)(=O)Cc5ccc(OC(F)(F)F)cc5)sc4c3)cc2)C1 (stereo partly drawn)
(Q) NS(=O)(=O)CCNC(=O)C(c1nc2ccc(-c3cccc(C(=O)N4CC(F)(F)C4)c3)cc2s1)S(=O)(=O)CCC(F)(F)F (stereo not drawn)
Enquiry: Of P and Q , which one carries the higher reported IC50? Respond with the label that goes with your answer.
Return: Q
(Q: 0.0142 µM, P: 0.0038 µM)

(a) NS(=O)(=O)CCNC(=O)C(c1nc2ccc(-c3cnn(CCN4CCOCC4)c3)cc2s1)S(=O)(=O)Cc1ccccc1 (stereo not drawn)
(b) NS(=O)(=O)CCNC(=O)C(c1nc2ccc(-c3cccc(C(=O)N4CCC(F)(F)CC4)c3)cc2s1)S(=O)(=O)CCC(F)(F)F (stereo not drawn)
Enquiry: Response body: label of entry with the larger IC50; valid values a , b . Please identify the chosen entry by its label.
Return: a
